# assay.comment: Inhibition of AZT glucuronidation by human UGT enzymes from liver microsomes
# Parameters: species or system Microsome
pKi: −log10 of the molar value.
Binary call on pKi: condition met from 3 upward, condition not met beneath that.

Study these solved cases before continuing.
O=C(N[C@H](CO)[C@H](O)c1ccc([N+](=O)[O-])cc1)C(Cl)Cl | condition met
CN1C(=O)CN=C(c2ccccc2F)c2cc([N+](=O)[O-])ccc21 | condition met
CC(C(=O)O)c1ccc(-c2ccccc2)c(F)c1 (stereo not drawn) | condition met
CN/C(=N\CCSCc1nc[nH]c1C)NC#N | condition not met
CN1C(=O)CN=C(c2ccccc2)c2cc(Cl)ccc21 | condition met
CCCCC1C(=O)N(c2ccccc2)N(c2ccccc2)C1=O | condition not met

Q: Quick check: does O=C1Nc2ccc(Cl)cc2C(c2ccccc2)=NC1O (stereo not drawn) have pKi greater than or equal to 3?
Result: condition met

Q: Quick check: does `CCCN(CCC)S(=O)(=O)c1ccc(C(=O)O)cc1` have pKi greater than or equal to 3?
Result: condition not met

----------
# assay.comment: Inhibition of codeine glucuronidation by human UGT enzymes from liver homogenate
# Type: tissue-based
recorded.endpoint: pKi
Note: pKi values are expressed as the negative base-10 logarithm of concentration in M.

Q: Which pKi reading was recorded for the compound O=C(O)Cc1ccccc1Nc1c(Cl)cccc1Cl [DICLOFENAC] ?
Result: 5.10

----------
# test.target: UDP-glucuronosyltransferase 2B7 (Homo sapiens, UniProt P16662)
# Sequence (P16662 whole entry): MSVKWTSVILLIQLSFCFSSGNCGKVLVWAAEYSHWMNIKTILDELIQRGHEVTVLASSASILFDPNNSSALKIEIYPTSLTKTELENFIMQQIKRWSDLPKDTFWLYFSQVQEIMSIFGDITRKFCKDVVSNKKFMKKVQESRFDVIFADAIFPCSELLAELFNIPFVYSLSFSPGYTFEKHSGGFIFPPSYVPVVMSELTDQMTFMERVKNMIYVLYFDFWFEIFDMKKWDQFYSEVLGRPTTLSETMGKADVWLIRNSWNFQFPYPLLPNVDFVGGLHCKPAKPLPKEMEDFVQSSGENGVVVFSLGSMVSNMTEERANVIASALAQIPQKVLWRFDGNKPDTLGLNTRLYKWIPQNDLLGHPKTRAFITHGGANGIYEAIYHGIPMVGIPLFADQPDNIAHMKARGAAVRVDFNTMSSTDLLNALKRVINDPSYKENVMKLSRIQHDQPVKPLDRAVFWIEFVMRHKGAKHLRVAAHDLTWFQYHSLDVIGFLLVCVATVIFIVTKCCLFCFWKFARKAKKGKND
# assay.comment: Inhibition of AZT glucuronidation by human recombinant UGT2B7
recorded.endpoint: Ki (µM)
Only the number, expressed in µM, is required.

Q: Which Ki reading was recorded for the compound CCCC(CCC)C(=O)O [VALPROIC ACID] ?
Result: 1600

----------
# test.target: UGT1A4 (Homo sapiens)
# Sequence (P22310 whole entry): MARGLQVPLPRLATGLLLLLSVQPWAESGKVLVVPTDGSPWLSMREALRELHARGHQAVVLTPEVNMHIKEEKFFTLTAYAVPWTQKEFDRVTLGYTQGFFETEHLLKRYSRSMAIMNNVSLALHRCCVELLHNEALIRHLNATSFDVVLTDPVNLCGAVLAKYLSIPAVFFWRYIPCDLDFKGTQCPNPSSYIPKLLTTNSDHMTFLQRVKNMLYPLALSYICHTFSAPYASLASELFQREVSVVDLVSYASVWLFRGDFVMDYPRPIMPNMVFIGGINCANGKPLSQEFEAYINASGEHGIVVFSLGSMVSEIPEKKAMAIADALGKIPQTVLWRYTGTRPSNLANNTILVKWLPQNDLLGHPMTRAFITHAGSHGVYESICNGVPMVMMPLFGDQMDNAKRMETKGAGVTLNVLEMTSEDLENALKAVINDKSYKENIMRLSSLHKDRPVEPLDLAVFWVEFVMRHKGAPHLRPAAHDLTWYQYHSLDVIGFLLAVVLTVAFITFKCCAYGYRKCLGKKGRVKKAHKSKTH
# assay.comment: Drug glucuronidation reaction catalyzed by human recombinant UGT1A4
# measurement.conditions: recombinant UGT1A4
recorded.endpoint: Km (µM)
Only the number, expressed in µM, is required.

Q: Which Km reading was recorded for the compound `Cc1cc2c(s1)Nc1ccccc1N=C2N1CCN(C)CC1` ?
Result: 227
